System: HepG2
Assay: cytotoxicity call (relative viability < 0.9)
Conditions: 10 µM
Hit rate of the full screen: of about 39,000 compounds, about 3,300 (8.5%) were called active. This is one part of a sample in which actives are shown more often than they occur.
Reply using exactly one outcome from yes (1) (active), no (0) (inactive)

Here's what some known entries look like.
smiles_string: C[C@@H]1O[C@@H](OC[C@H]2O[C@@H](Oc3cc(O)c4c(c3)O[C@@H](c3ccc(O)cc3)CC4=O)[C@H](O)[C@@H](O)[C@@H]2O)[C@H](O)[C@H](O)[C@H]1O
label: no (0)
//
smiles_string: C[C@@H]1CCCCO[C@@H](CN(C)C(=O)NC2CCCCC2)[C@H](C)CN([C@H](C)CO)C(=O)c2cc(NC(=O)Nc3cccc4ccccc34)ccc2O1
label: no (0)
//
smiles_string: Cn1cc(-c2cc3c(N4CCN(c5ncc([C@@](C)(N)c6ccc(F)cc6)cn5)CC4)ncnn3c2)cn1
label: yes (1)
//
smiles_string: C[C@@H]1CN([C@@H](C)CO)C(=O)Cc2cc(NC(=O)CCC(F)(F)F)ccc2O[C@H]1CN(C)Cc1ccc(C(=O)Nc2ccccc2N)cc1
label: no (0)
//
smiles_string: C[C@@H]1CCCCO[C@@H](CN(C)C(=O)Nc2cccc3ccccc23)[C@H](C)CN([C@H](C)CO)C(=O)c2cc(NC(=O)NC3CCCCC3)ccc2O1
label: no (0)

Outcome? COc1ccccc1OC[C@@H](O)COC(N)=O
no (0)

Lab log entry: C[C@@H]1CN([C@@H](C)CO)C(=O)Cc2cc(NC(=O)Nc3cccc4ccccc34)ccc2O[C@@H]1CN(C)S(=O)(=O)c1ccc(F)cc1 — outcome as called in the assay?
no (0)

Hello, I am checking results. What call was entered for COc1cccc(CN(C)C[C@H]2OCc3ccccc3-c3c(n(C)c4ccccc34)C(=O)N([C@@H](C)CO)C[C@@H]2C)c1 ?
no (0)

Could you kindly confirm the outcome this assay logged for Cc1noc(C)c1NC(=O)N(C)C[C@@H]1OCCCC[C@@H](C)Oc2ccc(NC(=O)C3CCCCC3)cc2C(=O)N([C@H](C)CO)C[C@H]1C ?
no (0)

I'd appreciate the recorded outcome for O=C(C[C@H]1C=C[C@H](NC(=O)C2CC2)[C@H](CO)O1)NCCCN1CCOCC1 from this test.
no (0)

Per the assay record, what outcome was assigned to C[C@H](CO)N1C[C@H](C)[C@@H](CN(C)Cc2cccc(F)c2)OCc2ccccc2-c2c(n(C)c3ccccc23)C1=O ?
no (0)

Assay result, entry COc1cccc(CN(C)C[C@@H]2OCc3ccccc3-c3c(n(C)c4ccccc34)C(=O)N([C@@H](C)CO)C[C@@H]2C)c1 — outcome?
no (0)

// outcome(item) with item = C[C@H](CO)N1C[C@H](C)[C@H](CN(C)Cc2cccc(F)c2)OCc2ccccc2-c2c(n(C)c3ccccc23)C1=O
yes (1)

Identify the outcome logged in this assay for the molecule shown: NC(=O)OCC(COC(N)=O)c1ccccc1
no (0)

====

Tested on: HepG2
Assay: cytotoxicity call (relative viability < 0.9)
Conditions: 10 µM
The campaign covered roughly 39,000 compounds. About 3,300 (8.5%) were called active. The full list was thinned out, with actives kept by preference.
// one of active, inactive, no free text

smiles_string: COc1ccc(CN(C)C[C@H]2OCCCC[C@@H](C)Oc3ccc(NC(=O)Nc4ccc(OC)cc4)cc3C(=O)N([C@@H](C)CO)C[C@H]2C)cc1
system_name: HepG2
label: active

smiles_string: COc1ccc(CN(C)C[C@@H]2OCCCC[C@@H](C)Oc3ccc(NC(=O)Nc4ccc(OC)cc4)cc3C(=O)N([C@@H](C)CO)C[C@H]2C)cc1
system_name: HepG2
label: inactive

smiles_string: O=C(C[C@H]1CC[C@@H]2[C@H](COC[C@@H](O)CN2S(=O)(=O)c2ccccc2F)O1)NCc1ccccc1Cl
system_name: HepG2
label: inactive

Which outcome did this test record for the compound CCCNC(=O)[C@@]1(c2ccc([N+](=O)[O-])cc2)CC(=O)N(CC23CC4CC(CC(C4)C2)C3)[C@@H]1c1ccc(CO)cc1I ?
inactive

Outcome logged for C[C@H]1CCCCO[C@H](CN(C)C(=O)Nc2ccc(C(F)(F)F)cc2)[C@@H](C)CN([C@@H](C)CO)C(=O)c2cc(NS(=O)(=O)c3ccccc3)ccc2O1 in this assay:
active

What was the test verdict on COc1ccc(CN(C)C[C@@H]2OCCCC[C@H](C)Oc3ccc(NC(=O)Nc4ccc(OC)cc4)cc3C(=O)N([C@@H](C)CO)C[C@@H]2C)cc1 ?
active

====

Test system: HepG2
Assay: cytotoxicity call (relative viability < 0.9)
Details: 10 µM
Hit rate of the full screen: of about 39,000 compounds, about 3,300 (8.5%) were called active. The list comes from a sample in which actives are over-represented; it also holds close analogues and randomly drawn compounds.
Hi there, use one of these labels in your reply, thanks! active, inactive

smiles_string: C[C@H]1CN([C@@H](C)CO)C(=O)c2cccc(NC(=O)c3cnccn3)c2O[C@H]1CN(C)C(=O)Nc1ccc2c(c1)OCO2
label: inactive
--
smiles_string: C[C@@H]1CN([C@@H](C)CO)C(=O)c2cccc(NC(=O)c3nc4ccccc4s3)c2O[C@H]1CN(C)CC1CCCCC1
label: inactive
--
smiles_string: C[C@@H]1CN([C@@H](C)CO)C(=O)c2cccc(NC(=O)c3nc4ccccc4s3)c2O[C@@H]1CN(C)CC1CCCCC1
label: active
--
smiles_string: COc1ccc(C=CC(=O)O)cc1OC
label: inactive
--
smiles_string: C[C@@H]1CN([C@@H](C)CO)C(=O)c2cccc(NC(=O)c3nc4ccccc4s3)c2O[C@H]1CN(C)C(=O)Nc1cccc2ccccc12
label: active

Field: outcome | Entry: COc1cc(C(C)=O)ccc1O
inactive

Hi team, can someone confirm the assay call for COc1ccc(S(=O)(=O)Nc2ccc3c(c2)C(=O)N([C@H](C)CO)C[C@@H](C)[C@@H](CN(C)CC2CC2)O3)cc1 ?
inactive

Check the results log: what was the call for C[C@H]1CN([C@@H](C)CO)C(=O)c2cccc(NC(=O)c3nc4ccccc4s3)c2O[C@H]1CN(C)C(=O)Nc1cccc2ccccc12 ?
inactive

Hello, I am checking results. What call was entered for COc1ccc(/C=C/C(=O)C=C(O)/C=C/c2ccc(OC)c(OC)c2)cc1OC ?
inactive

So what was the verdict on C[C@@H]1CN([C@@H](C)CO)C(=O)c2cc(NC(=O)CCN3CCOCC3)ccc2O[C@@H]1CN(C)Cc1ccccc1 in this test?
inactive

====

System: HepG2
Assay: cytotoxicity call (relative viability < 0.9)
Details: 10 µM
Among all 39,000 compounds or so, about 3,300 (8.5%) were called active. This excerpt belongs to a sample that is enriched for actives.
Reply using exactly one outcome from 1.0 (active), 0.0 (inactive)

Example entries begin here.
molecule: CC(CN1c2ccccc2Sc2ccccc21)N(C)C.Cl (stereo unspecified)
label: 1.0
--
molecule: C[C@H]1CCCCO[C@H](CN(C)CC2CCCCC2)[C@@H](C)CN([C@@H](C)CO)C(=O)c2cc(NC(=O)Cc3ccccc3)ccc2O1
label: 1.0
--
molecule: COc1ccc(CN(C)C[C@@H]2OCCCC[C@H](C)Oc3ccc(NS(=O)(=O)c4cccs4)cc3C(=O)N([C@H](C)CO)C[C@@H]2C)cc1
label: 0.0
--
molecule: CN1C(=O)c2cc(NC(=O)c3ccc(F)cc3)ccc2OC[C@@H]2O[C@H](CC(=O)N3CCOCC3)CC[C@@H]21
label: 0.0
--
molecule: CN1CCN(C(=O)C[C@@H]2C=C[C@@H](NC(=O)c3ccc4c(c3)OCO4)[C@H](CO)O2)CC1
label: 0.0
--
molecule: Cc1noc(C)c1NC(=O)Nc1ccc2c(c1)C(=O)N([C@@H](C)CO)C[C@H](C)[C@H](CN(C)CC1CCCCC1)OCCCC[C@@H](C)O2
label: 0.0

// switching to the query molecule
Write down the call the test reported for this molecule. Item: CC(C)(C)NC(=O)[C@@H]1CN(Cc2cccnc2)CCN1C[C@@H](O)C[C@@H](Cc1ccccc1)C(=O)N[C@H]1c2ccccc2C[C@H]1O
0.0

====

Tested on: HepG2
Test: cytotoxicity call (relative viability < 0.9)
Conditions: 10 µM
Among all 39,000 compounds or so, about 3,300 (8.5%) were called active. Shown is part of a subset that was picked to be rich in actives.
Log the outcome using a class from active, inactive

compound: Cc1noc(C)c1S(=O)(=O)N(C)C[C@H]1Oc2ccc(NC(=O)C3CCCCC3)cc2CC(=O)N([C@@H](C)CO)C[C@H]1C
label: inactive

compound: C#CCN(O[C@@H](/C=C/[C@@H](O)CCn1cc(-c2cccc(/C=C/C(=O)NO)c2)nn1)C1CC1)[C@@H](Cc1ccccc1)C(=O)OC
label: inactive

compound: C[C@@H]1CCCCO[C@@H](CN(C)Cc2ccccc2)[C@H](C)CN([C@H](C)CO)C(=O)c2cc(NC(=O)Nc3cccc4ccccc34)ccc2O1
label: inactive

Per the assay record, what outcome was assigned to C[C@@H]1CCCCO[C@H](CN(C)Cc2ccccc2)[C@H](C)CN([C@@H](C)CO)C(=O)c2cc(NC(=O)Nc3cccc4ccccc34)ccc2O1 ?
active

Look up the recorded call for Cc1noc(C)c1S(=O)(=O)Nc1ccc2c(c1)C(=O)N([C@@H](C)CO)C[C@H](C)[C@H](CN(C)Cc1ccc3c(c1)OCO3)O2 in this test.
inactive

Give the logged outcome of this assay for the following compound: CC(C)NC(=O)N(C)C[C@@H]1Oc2ccc(NC(=O)Cn3cnnn3)cc2C(=O)N([C@@H](C)CO)C[C@@H]1C
inactive
